Entry source: patent US5422344A

Assay Procedure: Cell number, viability (trypan blue dye exclusion) and growth of H9 cells
Assay type: cell-based
Measurement Context: human, h9 cells; 0.01 μM CPT, 7 days postinfection
Measurement Name: viability at 168 h, 0.01 µM (%)

Smiles Data	Measurement Name	Result
CC[C@@]1(O)C(=O)OCc2c1cc1n(c2=O)Cc2cc3ccccc3nc2-1	viability at 168 h, 0.01 µM	100

----------
Assay Procedure: Cell number, viability (trypan blue dye exclusion) and growth of H9 cells
Assay type: cell-based
Measurement Context: human, h9 cells; 0.2 μM CPT, 7 days postinfection

Compound	viability at 168 h, 0.2 µM / %
CC[C@@]1(O)C(=O)OCc2c1cc1n(c2=O)Cc2cc3ccccc3nc2-1 [CPT, Camptothecin]	100

----------
Assay Procedure: Cell number, viability (trypan blue dye exclusion) and growth of H9 cells
Format: cell-based
Measurement Context: human, h9 cells; 0.02 μM CPT, 7 days postinfection
Measurement Name: viability at 168 h, 0.02 µM (%)

Smiles Data	Result
CC[C@@]1(O)C(=O)OCc2c1cc1n(c2=O)Cc2cc3ccccc3nc2-1	100

----------
Assay Procedure: Cell number, viability (trypan blue dye exclusion) and growth of H9 cells
Assay type: cell-based
Measurement Context: human, h9 cells; 0.05 μM CPT, 7 days postinfection

Smiles Data	viability at 168 h, 0.05 µM (%)
CC[C@@]1(O)C(=O)OCc2c1cc1n(c2=O)Cc2cc3ccccc3nc2-1	100

----------
Assay Procedure: Cell number, viability (trypan blue dye exclusion) and growth of H9 cells
Assay type: cell-based
Measurement Context: human, h9 cells; 0.005 μM CPT, 7 days postinfection

Molecule	Unit Label	viability at 168 h, 0.005 µM
CC[C@@]1(O)C(=O)OCc2c1cc1n(c2=O)Cc2cc3ccccc3nc2-1 [CPT, Camptothecin]	%	100
